tested_target: E3 ubiquitin-protein ligase Mdm2 [1-118,T47W] (Homo sapiens, UniProt Q00987, T47W)
Construct: 1-118
assay_info: Microscale Thermophoresis (MT) Binding Assay
condition_set: pH 7.4; 25 °C
pKd: −log10 of the molar value.
Listing of entries alongside the reported pKd.
measure_name: pKd

{"compound": "O=C1OC(O)(Cc2ccc(Cl)cc2)C(Cc2ccc(Cl)cc2)=C1c1c[nH]c2cc(Cl)ccc12 (configuration not stated)", "measure_name": "pKd", "experimental_result": 5.82}
{"compound": "CN1C(=O)C(c2cn(C)c3cc(Cl)ccc23)=C(c2ccc(Cl)cc2)C1(O)Cc1ccc(Cl)cc1 (configuration not stated)", "measure_name": "pKd", "experimental_result": 4.52}
{"compound": "CN1C(=O)C(Cc2ccc(Cl)cc2)=C(c2c[nH]c3cc(Cl)ccc23)C1(O)Cc1ccc(Cl)cc1 (configuration not stated)", "measure_name": "pKd", "experimental_result": 6.30}
{"compound": "CN1C(=O)C(c2ccc(Cl)cc2)=C(c2cn(C)c3cc(Cl)ccc23)C1(O)Cc1ccc(Cl)cc1 (configuration not stated)", "measure_name": "pKd", "experimental_result": 4.39}
{"compound": "O=C1OC(O)(Cc2ccc(Cl)cc2)C(c2ccc(Cl)cc2)=C1c1c[nH]c2cc(Cl)ccc12 (configuration not stated)", "measure_name": "pKd", "experimental_result": 5.15}
{"compound": "O=C1OC(O)(Cc2ccc(F)cc2)C(c2c[nH]c3cc(Cl)ccc23)=C1Cc1ccc(Cl)cc1 (configuration not stated)", "measure_name": "pKd", "experimental_result": 4.54}
{"compound": "O=C1C(c2ccc(Cl)cc2)=C(c2c[nH]c3cc(Cl)ccc23)C(O)N1Cc1ccc(Cl)cc1 (configuration not stated)", "measure_name": "pKd", "experimental_result": 4.61}
{"compound": "O=C1C(c2c[nH]c3cc(Cl)ccc23)=C(c2ccc(Cl)cc2)C(O)N1Cc1ccc(Cl)cc1 (configuration not stated)", "measure_name": "pKd", "experimental_result": 5.68}
{"compound": "O=C1OC(O)(Cc2ccc(Cl)cc2)C(c2c[nH]c3cc(Cl)ccc23)=C1c1ccc(Cl)cc1 (configuration not stated)", "measure_name": "pKd", "experimental_result": 5.89}
{"compound": "O=C1OC(O)(Cc2ccc(F)cc2)C(Cc2ccc(Cl)cc2)=C1c1c[nH]c2cc(Cl)ccc12 (configuration not stated)", "measure_name": "pKd", "experimental_result": 4.59}
{"compound": "CN1C(=O)C(c2ccc(Cl)cc2)=C(c2c[nH]c3cc(Cl)ccc23)C1(O)Cc1ccc(Cl)cc1 (configuration not stated)", "measure_name": "pKd", "experimental_result": 4.73}
{"compound": "CN1C(=O)C(c2c[nH]c3cc(Cl)ccc23)=C(c2ccc(Cl)cc2)C1(O)Cc1ccc(Cl)cc1 (configuration not stated)", "measure_name": "pKd", "experimental_result": 4.56}

---

Below are compounds with their Kd as measured on E3 ubiquitin-protein ligase Mdm2 [1-118] (Homo sapiens).

{"compound": "CN1C(=O)C(c2ccc(Cl)cc2)=C(c2cn(C)c3cc(Cl)ccc23)C1(O)Cc1ccc(Cl)cc1 (stereo unspecified)", "tested_target": "E3 ubiquitin-protein ligase Mdm2 [1-118] (Homo sapiens)", "Kd": "365 µM"}
{"compound": "CN1C(=O)C(Cc2ccc(Cl)cc2)=C(c2c[nH]c3cc(Cl)ccc23)C1(O)Cc1ccc(Cl)cc1 (stereo unspecified)", "tested_target": "E3 ubiquitin-protein ligase Mdm2 [1-118] (Homo sapiens)", "Kd": "< 1 µM"}
{"compound": "O=C1OC(O)(Cc2ccc(F)cc2)C(c2c[nH]c3cc(Cl)ccc23)=C1Cc1ccc(Cl)cc1 (stereo unspecified)", "tested_target": "E3 ubiquitin-protein ligase Mdm2 [1-118] (Homo sapiens)", "Kd": "18 µM"}
{"compound": "CN1C(=O)C(c2cn(C)c3cc(Cl)ccc23)=C(c2ccc(Cl)cc2)C1(O)Cc1ccc(Cl)cc1 (stereo unspecified)", "tested_target": "E3 ubiquitin-protein ligase Mdm2 [1-118] (Homo sapiens)", "Kd": "246 µM"}
{"compound": "O=C1OC(O)(Cc2ccc(Cl)cc2)C(c2ccc(Cl)cc2)=C1c1c[nH]c2cc(Cl)ccc12 (stereo unspecified)", "tested_target": "E3 ubiquitin-protein ligase Mdm2 [1-118] (Homo sapiens)", "Kd": "68 µM"}
{"compound": "CN1C(=O)C(c2c[nH]c3cc(Cl)ccc23)=C(Cc2ccc(Cl)cc2)C1(O)Cc1ccc(Cl)cc1 (stereo unspecified)", "tested_target": "E3 ubiquitin-protein ligase Mdm2 [1-118] (Homo sapiens)", "Kd": "56 µM"}

meta.source: BindingDB's records for doi:10.1021/acschembio.6b00596
